- System Under Test: prostaglandin endo-peroxidesynthase (PGHS-1) (Ovis aries, UniProt P05979)
- Construct: isolated from sheep seminal glands; purchased Cayman Chemical 60100; host or cells: sheep seminal glands (tissue-derived)
- Sequence (P05979 25-600): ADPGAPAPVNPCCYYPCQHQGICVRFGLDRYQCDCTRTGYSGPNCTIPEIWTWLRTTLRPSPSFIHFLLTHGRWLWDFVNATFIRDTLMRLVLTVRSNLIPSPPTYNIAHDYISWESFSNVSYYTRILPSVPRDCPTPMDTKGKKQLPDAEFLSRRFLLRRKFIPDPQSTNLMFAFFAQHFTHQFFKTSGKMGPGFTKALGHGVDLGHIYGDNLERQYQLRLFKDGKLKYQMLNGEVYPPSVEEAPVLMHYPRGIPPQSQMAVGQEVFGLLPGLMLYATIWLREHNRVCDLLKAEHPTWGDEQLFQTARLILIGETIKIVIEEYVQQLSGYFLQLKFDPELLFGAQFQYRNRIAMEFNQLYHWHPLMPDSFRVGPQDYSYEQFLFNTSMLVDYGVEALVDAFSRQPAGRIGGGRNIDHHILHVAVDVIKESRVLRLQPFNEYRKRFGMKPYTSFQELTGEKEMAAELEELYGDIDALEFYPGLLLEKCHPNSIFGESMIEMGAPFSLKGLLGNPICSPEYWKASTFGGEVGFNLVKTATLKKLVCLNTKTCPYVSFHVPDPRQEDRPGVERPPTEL
- Procedure Details: Measurement of the prostaglandin-endoperoxide synthase (PGHS-1) activating power (oxygen consumption, Clark electrode)
- Format: biochemical, sheep
- Experimental Setup: test compound 0.5 mM; oxidation of arachidonic acid, 37° C., pH 8.00; % relative to the values obtained with the control
Quantity: Activation

The molecule identified as CCCCCCCCNc1cc(OCCCC)nc(N)[n+]1[O-] [Example 17] registered its Activation at +8%

// Activation value for CCCCCCCCCCCCNc1ccnc(N)[n+]1[O-] [Example 2, 2-Amino-4-dodecylaminopyrimidine 3-Oxide] : +11%

For CCCCCCCCNc1ccnc(N)[n+]1[O-] [Example 3, 2-Amino-4-octylaminopyrimidine 3-Oxide] the molecule record lists Activation as +14%

For CCCCCCNc1ccnc(N)[n+]1[O-] [Example 1, 2-Amino-4-hexylaminopyrimidine 3-Oxide] the molecule record lists Activation as +37%
